assayNotes: Cytotoxicity assay (MTT), normal murine spleen cells stimulated with concanavalin A
Format: cell-based
testParameters: normal murine spleen cells stimulated with concanavalin A; normal mouse spleen stimulated with concanavalin A inhibited by 50%; read-out: Mean CC50 (Normal Mouse Spleen) ± SEM (no. of expts)

[
  {
    "compound": "CC(=O)NC1=CC(=O)c2ccc(-c3nc(C(N)=O)cc4c3[nH]c3ccccc34)nc2C1=O [Compound 16, 7-N-Acetyldemethyllavendamycin Amide]",
    "unitAbbrev": "µM",
    "CC50 at 48 h": 50
  },
  {
    "compound": "CC(=O)NC1=CC(=O)c2ccc(-c3nc(C(=O)OCCOP(=O)(O)O)cc4c3[nH]c3ccccc34)nc2C1=O",
    "unitAbbrev": "µM",
    "CC50 at 48 h": 29
  },
  {
    "compound": "COC(=O)c1nc(-c2ccc3c(n2)C(=O)C(NC(C)=O)=CC3=O)c2[nH]c3ccccc3c2c1C",
    "unitAbbrev": "µM",
    "CC50 at 48 h": 62
  },
  {
    "compound": "NC(=O)c1cc2c([nH]c3ccccc32)c(-c2ccc3c(n2)C(=O)C(N)=CC3=O)n1 [Compound 21, Demethyllavendamycin Amide]",
    "unitAbbrev": "µM",
    "CC50 at 48 h": 15
  },
  {
    "compound": "CC(=O)NC1=CC(=O)c2ccc(-c3nc(C(=O)O)cc4c3[nH]c3ccccc34)nc2C1=O",
    "unitAbbrev": "µM",
    "CC50 at 48 h": 47
  }
]
